Every entry's value here was drawn from patent US7592308B2.

Give MIC S. aureus SH1000 for every item shown.
Test system: S. aureus SH1000
Format: cell-based, Staphylococcus aureus
ASSAY_CONDITIONS: Table 8A; MHB + 50 μg/ml calcium; duplicate
Protocol: A selection of the variants produced in Example 1 above were tested further for activity against a range of bacteria. Minimum inhibitory concentrations (MICs) for all organisms with the exception of Streptococcus pneumoniae were determined by two-fold serial antibiotic dilutions in Mueller-Hinton broth (MHB) supplemented with 50 μg/ml calcium as calcium chloride dihydrate. […]
Square brackets hold non-standard residues; d marks the D form. Ends that are not written are not given here. Dha = C=C(N)C(=O)O

Challenge: Determine its reported MIC S. aureus SH1000: G8Q: mersacidin variant (CTFTLPGQGGVCTLT[Dha]ECIC; thioether (positions not given here); not fully specified; UniProt P43683 49-68, looked up, variant G8Q)
Response given: >64, >64 μg/ml

Challenge: Supply reported MIC S. aureus SH1000 belonging to this substance: G7A: mersacidin variant (CTFTLPAGGGVCTLT[Dha]ECIC; thioether (positions not given here); not fully specified; UniProt P43683 49-68, looked up, variant G7A)
Response given: >64, >64 μg/ml
